Can you tell me glycan array binding signal (z-score) for the items I'm about to list?
target: Neu5Ac(a2-3)Gal(b1-4)Glc; assay: glycan array binding signal (z-score within array); higher = stronger binding; conditions: glycan notation: IUPAC condensed, linker removed
Shown is part of a subset that was picked to be rich in the strongest signals.

Reference set (2 entries):
DCAL1 (Homo sapiens), Q8IZS7 (protein) MVSNFFHVIQVFEKSATLISKTEHIGFVIYSWRKSTTHLGSRRKFAISIYLSEVSLQKYDCPFSGTSFVVFSLFLICAMAGDVVYADIKTVRTSPLELAFPLQRSVSFNFSTVHKSCPAKDWKVHKGKCYWIAETKKSWNKSQNDCAINNSYLMVIQDITAMVRFNI : -0.211
Mermaid3 (Stilbonema majum) (protein) MGSSHHHHHHSSGLVPRGSHMAASGWLRSPQGTVVKLYRRSLSWSKADEFCKDVDGRLVVDRTADMHLFLIKNVLKEKKSRVWVGLRRTASHSRTWIWSDGTRQNEGDLDANLWLRDEPNDAAGEEECALFMYSPWEKAWGLNDYLCRGGCRNYQFICEKWIR : 0.506

The record that follows has no glycan array binding signal (z-score) shown yet.
Item LlpB (Pseudomonas fluorescens) (protein) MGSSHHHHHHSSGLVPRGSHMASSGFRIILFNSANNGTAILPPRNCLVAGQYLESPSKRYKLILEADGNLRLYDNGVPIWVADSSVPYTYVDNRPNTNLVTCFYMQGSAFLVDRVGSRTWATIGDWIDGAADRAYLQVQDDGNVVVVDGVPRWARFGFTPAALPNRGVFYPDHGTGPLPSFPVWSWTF has what recorded glycan array binding signal (z-score)?
2.98
